# study target: T1, 4H55-AA
# T1 chain: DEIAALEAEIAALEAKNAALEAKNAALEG
# assay overview: two-hybrid library CCmax;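 also: natural log of median RNA to DNA barcode read ratio; higher means stronger binding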
# condition set: mean of both orientations
attribute measured: interaction score

The following binders have reported results that may help.
{"binder": "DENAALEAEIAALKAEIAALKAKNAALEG [4H1103-AA]", "interaction score": -1.09}
{"binder": "DKNAALKAKNAALKAEIAALEAEIAALEG [4H4033-AA]", "interaction score": -1.39}

A = DKNAALKAKIAALKAENAALEAEIAALKG [4H3922-AA]
B = DEIAALEAKIAALKAEIAALEAKNAALEG [4H327-AA]
Ask: Which entry shows the lesser value of interaction score here, A or B ? Please respond with the label that marks your chosen entry.
Result: A
(A: -1.32, B: -0.319)
